Listed next: entries and their corresponding % MJ cell lysis E:T = 0.5:1 (LDH assay, CAR T cells).
MEASURED_TARGET: T1, CD30 on CD30-expressing tumor cell lines (HH, MJ, H9) (UniProt P28908 19-595)
T1 sequence (looked up): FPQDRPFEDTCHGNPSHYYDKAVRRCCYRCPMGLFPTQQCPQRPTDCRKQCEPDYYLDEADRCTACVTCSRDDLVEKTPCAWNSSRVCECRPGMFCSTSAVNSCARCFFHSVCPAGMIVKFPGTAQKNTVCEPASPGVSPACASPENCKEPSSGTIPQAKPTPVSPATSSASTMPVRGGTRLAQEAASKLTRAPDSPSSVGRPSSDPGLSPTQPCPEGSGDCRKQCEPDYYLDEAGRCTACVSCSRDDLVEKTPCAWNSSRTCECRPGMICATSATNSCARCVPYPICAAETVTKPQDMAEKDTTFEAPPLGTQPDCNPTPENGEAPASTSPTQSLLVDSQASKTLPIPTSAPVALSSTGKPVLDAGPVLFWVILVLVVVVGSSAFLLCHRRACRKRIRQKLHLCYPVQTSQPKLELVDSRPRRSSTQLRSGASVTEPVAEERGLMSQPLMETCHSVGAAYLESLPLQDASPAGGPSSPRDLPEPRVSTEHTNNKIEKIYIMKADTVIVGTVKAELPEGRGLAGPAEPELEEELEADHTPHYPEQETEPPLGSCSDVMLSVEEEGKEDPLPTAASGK
RUN_DESCRIPTION: cell-based or functional assay
Number in %, nothing else.

Would you please look over these solved cases?
BINDER	MEASUREMENT
AS53445bbz CAR (other) QVQLVESGGGSVQAGGSLRLSCTASGYIFCMGWFRQAPGKAREGIATIYTGGDSTYYDDSVKGRFTISRDNAKNTVYLQMNSLKPEDTAMYYCAAGGQECYLTNWVSYWGQGTQVTVSSTTTPAPRPPTPAPTIASQPLSLRPEACRPAAGGAVHTRGLDFACDIYIWAPLAGTCGVLLLSLVITLYCKRGRKKLLYIFKQPFMRPVQTTQEEDGCSCRFPEEEEGGCELRVKFSRSADAPAYKQGQNQLYNELNLGRREEYDVLDKRRGRDPEMGGKPRRKNPQEGLYNELQKDKMAEAYSEIGMKGERRRGKGHDGLYQGLSTATKDTYDALHMQALPPR	24.6
AS48433bbz CAR (other) QIQLVESGGGSVQAGETLRLSCTASGSTFGDSDMGWYRQAPGNACELVSIISSDGRTYYVDSVKGRFTISQDNAVSTVYLQMNSLNPEDTGVYYCAADLRLNCRDGRCCGYWGQGTQVTVSSTTTPAPRPPTPAPTIASQPLSLRPEACRPAAGGAVHTRGLDFACDIYIWAPLAGTCGVLLLSLVITLYCKRGRKKLLYIFKQPFMRPVQTTQEEDGCSCRFPEEEEGGCELRVKFSRSADAPAYKQGQNQLYNELNLGRREEYDVLDKRRGRDPEMGGKPRRKNPQEGLYNELQKDKMAEAYSEIGMKGERRRGKGHDGLYQGLSTATKDTYDALHMQALPPR	50.5

Fill in the blank: the reported % MJ cell lysis E:T = 0.5:1 (LDH assay, CAR T cells) of AS47863bbz CAR (other) QVQLEESGGGSVQAGETLRLSCTASGSTFGDSDMGWYRQAPGNACELVSIISSDGRTYYVDSVKGRFTISQDNAVSTVYLQMNSLKPEDTGVYYCAADLRQYCRDGRCCGYWGQGTQVTVSSTTTPAPRPPTPAPTIASQPLSLRPEACRPAAGGAVHTRGLDFACDIYIWAPLAGTCGVLLLSLVITLYCKRGRKKLLYIFKQPFMRPVQTTQEEDGCSCRFPEEEEGGCELRVKFSRSADAPAYKQGQNQLYNELNLGRREEYDVLDKRRGRDPEMGGKPRRKNPQEGLYNELQKDKMAEAYSEIGMKGERRRGKGHDGLYQGLSTATKDTYDALHMQALPPR is ____.
65

Fill in the blank: the reported % MJ cell lysis E:T = 0.5:1 (LDH assay, CAR T cells) of AS48463bbz CAR (other) QVHLMESGGGSVQAGETLRLSCTASGFTFANSDMGWYRQAPGNACELVSIISSHGGTTYYVDSVKGRFTISRHNAENTVYLRMTSLKPEDTALYYCVADPRSNCRGGYCCGYWGPGTQVTVSSTTTPAPRPPTPAPTIASQPLSLRPEACRPAAGGAVHTRGLDFACDIYIWAPLAGTCGVLLLSLVITLYCKRGRKKLLYIFKQPFMRPVQTTQEEDGCSCRFPEEEEGGCELRVKFSRSADAPAYKQGQNQLYNELNLGRREEYDVLDKRRGRDPEMGGKPRRKNPQEGLYNELQKDKMAEAYSEIGMKGERRRGKGHDGLYQGLSTATKDTYDALHMQALPPR is ____.
60.8

Fill in the blank: the reported % MJ cell lysis E:T = 0.5:1 (LDH assay, CAR T cells) of AS48542bbz CAR (other) QMQLVESGGGSVQAGETLRLSCTTSAFTFDGPDMAWYRQAPGNECVLVSIISADGRTYYADSVKGRFTISRDNAKNTVFLNLNSLQPEDTAVYYCALDPRKNCRGGYCCANWGPGTQVTVSSTTTPAPRPPTPAPTIASQPLSLRPEACRPAAGGAVHTRGLDFACDIYIWAPLAGTCGVLLLSLVITLYCKRGRKKLLYIFKQPFMRPVQTTQEEDGCSCRFPEEEEGGCELRVKFSRSADAPAYKQGQNQLYNELNLGRREEYDVLDKRRGRDPEMGGKPRRKNPQEGLYNELQKDKMAEAYSEIGMKGERRRGKGHDGLYQGLSTATKDTYDALHMQALPPR is ____.
58.4
